// provenance: paper PMC11120720

# assay.overview: Alamar Blue cell viability assay, Caco-2
# Format: cell-based, human
# conditions: human, Caco-2; 48 h; concentration not given; read-out: cell viability, Caco-2 (% of control)
assay.metric: viability at 48 h

In: Write down viability at 48 h measured for item `O=C1C[C@@H](c2ccc(O)c(O)c2)Oc2cc(O)cc(O)c21`
Out: ~19%

###

# Tested on: Caco-2 cells
# assay.overview: Intracellular ROS (DCFDA, flow cytometry), Caco-2
# Type: cell-based
# conditions: compound 50 µM, 24 h
assay.metric: change in intracellular ROS, Caco-2

CC1(C)CC[C@]2(C(=O)O)CC[C@]3(C)C(=CC[C@@H]4[C@@]5(C)CC[C@H](O)C(C)(C)[C@@H]5CC[C@]43C)[C@@H]2C1 [Oleanolic acid, oleanolic acid] :: increase in ROS
C[C@H]1[C@H](C)CC[C@]2(C(=O)O)CC[C@]3(C)C(=CC[C@@H]4[C@@]5(C)CC[C@H](O)C(C)(C)[C@@H]5CC[C@]43C)[C@H]12 [Ursolic acid, ursolic acid] :: increase in ROS

###

# assay.overview: Alamar Blue cell viability assay, Caco-2
# Type: cell-based, human
# conditions: human, Caco-2
assay.metric: viability at 24 h, 300 µM
Please answer using a numeric value trailed by its unit.

In: Write down viability at 24 h, 300 µM measured for item O=C(/C=C/c1ccc(O)c(O)c1)O[C@H](Cc1ccc(O)c(O)c1)C(=O)O [Rosmarinic acid]
Out: 87.8%

###

# assay.overview: Alamar Blue cell viability assay, HepG2
# Type: cell-based, human
# conditions: human, HepG2 cells; 48 h; concentration not given
assay.metric: viability at 48 h (%)
Record the value in %, omitting the unit from your answer.

In: Write down viability at 48 h measured for item O=C1C[C@@H](c2ccc(O)c(O)c2)Oc2cc(O)cc(O)c21 [Eriodictyol, eriodictyol]
Out: 43.2

###

# assay.overview: Alamar Blue cell viability assay, Caco-2
# Type: cell-based, human
# conditions: human, Caco-2; concentrations up to 200 µM, 24 h; Figure 2E
assay.metric: viability at 24 h

In: Write down viability at 24 h measured for item O=c1c(O)c(-c2ccc(O)c(O)c2)oc2cc(O)cc(O)c12 [Quercetin, quercetin]
Out: ~90%

###

# assay.overview: Alamar Blue cell viability assay, Caco-2
# Type: cell-based, human
# conditions: human, Caco-2; 50-100 µM, 48 h; read-out: cell viability, Caco-2
assay.metric: viability at 48 h

In: Write down viability at 48 h measured for item `O=c1c(O)c(-c2ccc(O)c(O)c2)oc2cc(O)cc(O)c12`
Out: ≥ 68%

###

# assay.overview: Alamar Blue cell viability assay, HepG2
# Assay type: cell-based, human
# conditions: human
assay.metric: viability at 24 h, 300 µM (%)
Record the value in %, omitting the unit from your answer.

In: Write down viability at 24 h, 300 µM measured for item `O=C(/C=C/c1ccc(O)c(O)c1)O[C@H](Cc1ccc(O)c(O)c1)C(=O)O`
Out: 65.2

###

# assay.overview: Alamar Blue cell viability assay, HepG2
# Format: cell-based, human
# conditions: human, HepG2 cells; 50-100 µM, 48 h
assay.metric: viability at 48 h

In: Write down viability at 48 h measured for item `O=c1c(O)c(-c2ccc(O)c(O)c2)oc2cc(O)cc(O)c12`
Out: ≤ 20%

###

# assay.overview: Alamar Blue cell viability assay, Caco-2
# Format: cell-based, human
# conditions: human, Caco-2; 50 µM, 48 h; Figure 2E
assay.metric: viability at 48 h, 50 µM (%)
Record the value in %, omitting the unit from your answer.

In: Write down viability at 48 h, 50 µM measured for item `O=c1c(O)c(-c2ccc(O)c(O)c2)oc2cc(O)cc(O)c12`
Out: 77.6

###

# assay.overview: Alamar Blue cell viability assay, HepG2
# Type: cell-based, human
# conditions: human, HepG2 cells; 24 h; concentration not given
assay.metric: viability at 24 h (%)
Record the value in %, omitting the unit from your answer.

In: Write down viability at 24 h measured for item `O=C1C[C@@H](c2ccc(O)c(O)c2)Oc2cc(O)cc(O)c21`
Out: 56.9

###

# Test system: HepG2 cells
# assay.overview: Alamar Blue cell viability assay, HepG2
# Type: cell-based, human
# conditions: Homo sapiens, HepG2; 24 h exposure; read-out: IC50 (µM) - HepG2 cells: 24 h
# Protocol: The safety profile of T. carnosus AD and HE extracts was evaluated in Caco-2 and HepG2 cells using an Alamar Blue® (Invitrogen; Alfagene, Lisboa, Portugal) assay. […] The safety profile of T. carnosus extracts was assessed in Caco-2 and HepG2 cells. […] Cell culture maintenance, handling, subculturing, and seeding were performed as described by Silva et al., 2020 [5], and cell viability was assessed using an Alamar Blue® assay, as described by Andreani et al., 2014 [64]. […]
assay.metric: IC50 (µM)
Record the value in µM, omitting the unit from your answer.

In: Write down IC50 measured for item O=c1c(O)c(-c2ccc(O)c(O)c2)oc2cc(O)cc(O)c12 [Quercetin, quercetin]
Out: 141

In: Write down IC50 measured for item C[C@H]1[C@H](C)CC[C@]2(C(=O)O)CC[C@]3(C)C(=CC[C@@H]4[C@@]5(C)CC[C@H](O)C(C)(C)[C@@H]5CC[C@]43C)[C@H]12 [Ursolic acid, ursolic acid]
Out: 79.6

In: Write down IC50 measured for item CC1(C)CC[C@]2(C(=O)O)CC[C@]3(C)C(=CC[C@@H]4[C@@]5(C)CC[C@H](O)C(C)(C)[C@@H]5CC[C@]43C)[C@@H]2C1 [Oleanolic acid, oleanolic acid]
Out: 150
